Examples of compounds with documented pIC50 follow.
# system: human CRTH2 (Homo sapiens, UniProt Q9Y5Y4)
# Construct: expressed in transfected cells; host or cells: L1.2 cells, pEAK expression vector, puromycin-selected
# procedure-details: Measurement of Ca2+ mobilization in the human CRTH2-transfected L1.2 cell line (Assay 1)
# Type: cell-based
# protocol-conditions: PGD2-induced Ca2+ mobilization in CRTH2-transfected L1.2 cells; compounds as yielded by solid phase synthesis, purity about 40 to 90%; read-out: Activity class
# Experimental: Human CRTH2 cDNA was amplified from human eosinophil cDNA with gene specific primers containing restriction sites for cloning into pEAK vector (Edge Bio Systems). The human CRTH2 cDNA was cloned into the mammalian expression vector pEAK. This expression plasmid (40 μg) was transfected into L1.2 cells, at a cell density of 1×10^7 cells/500 μl, by using electroporation apparatus (Gene Pulser II, BioRad) at 250V/1,000 μF. […]
pIC50: −log10 of the molar value.

{"molecule": "CN(C)c1nc(Cc2ccc(NC(=O)c3ccc(Cl)c(Cl)c3)cc2)nc(Cl)c1CC(=O)O", "pIC50": "> 8.00"}

Proceeding to the next compound to report its pIC50.
Could you share which pIC50 value was measured for `CSc1ccc(C(=O)Nc2ccc(Cc3nc(Cl)c(CC(=O)O)c(N4CCCC4)n3)cc2)cc1` ?
> 8.00

====

Reported melting point values follow for various molecules

{"molecule": "COc1ccc(/C=C/C(=O)Nc2ccc(Cc3nc(N(C)C)c(CC(=O)O)c(N4CCOCC4)n3)cc2)cc1 [Example 7-25]", "assay-endpoint": "melting point", "test-value": "192 to 195 °C (dec.)"}
{"molecule": "CN(CC(=O)NC1CCCC1)c1nc(Cc2ccc(NCc3ccc4ccccc4c3)cc2)nc(Cl)c1CC(=O)O [Example 5-3]", "assay-endpoint": "melting point", "test-value": "> 96 °C"}
{"molecule": "COCc1nc(Cc2ccc(NC(=O)c3ccc(C(F)(F)F)cc3)cc2)nc(N(C)C)c1CC(=O)O [Example 8-7]", "assay-endpoint": "melting point", "test-value": "126 to 128 °C"}
{"molecule": "CN(C)c1nc(Cc2ccc(NC(=O)c3ccccc3-c3ccccc3)cc2)nc(N2CCCC2)c1CC(=O)O [Example 7-14]", "assay-endpoint": "melting point", "test-value": "132 to 134 °C"}
{"molecule": "CC(c1ccc(NC(=O)c2ccc(Cl)c(Cl)c2)cc1)c1ncc(CC(=O)O)c(N(C)C)n1 (centres unmarked) [Example 2-21]", "assay-endpoint": "melting point", "test-value": "137 to 140 °C"}

Quick check: melting point of O=C(O)Cc1cnc(Cc2ccc(NC(=O)c3ccc4ccccc4c3)cc2)nc1N1CCCC1 [Example 2-31] ?
150 to 151 °C

Name the reported melting point value associated with the molecule COc1ccc(C(=O)Nc2ccc(Cc3ncc(CC(=O)O)c(N(C)C)n3)cc2)cc1OC [Example 2-12]
106 to 110 °C

Give the measured melting point of O=C(O)Cc1cnc(Cc2ccc(NC(=O)CC3CC3)cc2)nc1N1CCCC1 [Example 2-33] .
145 to 148 °C (dec.)

====

# system: human CRTH2 (Homo sapiens, UniProt Q9Y5Y4)
# Construct: expressed in transfected cells; host or cells: L1.2 cells, pEAK expression vector, puromycin-selected
# procedure-details: Measurement of Ca2+ mobilization in the human CRTH2-transfected L1.2 cell line (Assay 1)
# Format: cell-based
# protocol-conditions: PGD2-induced Ca2+ mobilization in CRTH2-transfected L1.2 cells; compounds as yielded by solid phase synthesis, purity about 40 to 90%; read-out: Activity class
pIC50: −log10 of the molar value.
assay-endpoint: pIC50

Field: example entries. Status: answers known.
{"compound": "CN(C)c1nc(Cc2ccc(NC(=O)/C=C/c3ccc(Cl)cc3)cc2)nc(Cl)c1CC(=O)O [Example 1-41]", "pIC50": "> 8.00"}
{"compound": "CC(C)Oc1ccc(C(=O)Nc2ccc(Cc3nc(Cl)c(CC(=O)O)c(N4CCCC4)n3)cc2)cc1 [Example 1-56]", "pIC50": "> 8.00"}
{"compound": "CN(C)c1nc(Cc2ccc(NC(=O)c3ccc(Br)cc3)cc2)nc(Cl)c1CC(=O)O [Example 1-42]", "pIC50": "> 8.00"}

I am curious: what pIC50 value has been reported for O=C(O)Cc1cnc(Cc2ccc(NC(=O)CC3CC3)cc2)nc1N1CCCC1 [Example 2-33] ?
6.30 to 7.00

====

Entries annotated with measured pIC50
# system: human CRTH2 (Homo sapiens, UniProt Q9Y5Y4)
# Construct: expressed in transfected cells; host or cells: L1.2 cells, pEAK expression vector, puromycin-selected
# Sequence (Q9Y5Y4 1-395): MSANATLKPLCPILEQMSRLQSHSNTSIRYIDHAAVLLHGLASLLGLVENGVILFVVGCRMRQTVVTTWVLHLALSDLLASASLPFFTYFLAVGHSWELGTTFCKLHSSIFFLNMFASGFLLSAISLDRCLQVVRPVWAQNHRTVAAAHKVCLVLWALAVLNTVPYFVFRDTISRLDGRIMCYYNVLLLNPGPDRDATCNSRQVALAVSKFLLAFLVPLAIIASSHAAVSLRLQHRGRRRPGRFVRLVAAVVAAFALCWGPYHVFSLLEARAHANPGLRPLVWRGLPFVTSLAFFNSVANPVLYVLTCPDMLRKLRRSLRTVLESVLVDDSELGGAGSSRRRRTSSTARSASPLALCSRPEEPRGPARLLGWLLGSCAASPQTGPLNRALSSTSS
# procedure-details: Measurement of Ca2+ mobilization in the human CRTH2-transfected L1.2 cell line (Assay 1)
# Type: cell-based
# protocol-conditions: PGD2-induced Ca2+ mobilization in CRTH2-transfected L1.2 cells; compounds as yielded by solid phase synthesis, purity about 40 to 90%; read-out: Activity class
pIC50: −log10 of the molar value.

Here are 6 molecules together with their reported answers.
{"molecule": "O=C(O)Cc1c(Cl)nc(Cc2ccc(NC(=O)c3ccc(Cl)cc3)cc2)nc1N1CCCC1 [Example 1-63]", "pIC50": "> 8.00"}
{"molecule": "CC(C)C(=O)Nc1ccc(Cc2nc(Cl)c(CC(=O)O)c(N(C)CC(=O)NC3CCCC3)n2)cc1 [Example 1-5]", "pIC50": "< 6.30"}
{"molecule": "CN(CC(=O)NC1CCCC1)c1nc(Cc2ccc(NC(=O)c3cccnc3)cc2)nc(Cl)c1CC(=O)O [Example 1-4]", "pIC50": "< 6.30"}
{"molecule": "O=C(O)Cc1c(Cl)nc(Cc2ccc(NC(=O)/C=C/c3ccc(Cl)cc3)cc2)nc1N1CCCC1 [Example 1-65]", "pIC50": "> 8.00"}
{"molecule": "CN(C)c1nc(Cc2ccc(NC(=O)c3ccc(C(F)(F)F)cc3)cc2)nc(Cl)c1CC(=O)O [Example 1-39]", "pIC50": "> 8.00"}
{"molecule": "CN(C)c1nc(Cc2ccc(NC(=O)OCc3ccccc3)cc2)nc(N(C)C)c1CC(=O)O [Example 9-7]", "pIC50": "> 8.00"}

Fill blank: measured pIC50 of the molecule O=C(O)Cc1c(Cl)nc(Cc2ccc(NC(=O)c3ccc4ccccc4c3)cc2)nc1N1CCOCC1 [Example 3-6] is ____.
> 8.00

====

Recorded melting point for the following compounds

{"compound": "CN(C)c1nc(Cc2ccc(NC(=O)/C=C/c3ccc(Cl)cc3)cc2)ncc1CC(=O)O", "melting point": "136 to 140 °C"}

Bench note: what melting point did `COc1ccc(C(=O)Nc2ccc(Cc3ncc(CC(=O)O)c(N(C)C)n3)cc2)cc1` show?
111 °C

What value of measured melting point is listed for `CC(C)(C)CC(=O)Nc1ccc(Cc2ncc(CC(=O)O)c(N3CCCC3)n2)cc1` ?
147 to 150 °C

# query: melting point of entry `CC(C)Oc1ccc(C(=O)Nc2ccc(Cc3nc(Cl)c(CC(=O)O)c(N4CCCC4)n3)cc2)cc1`
156 °C

Record request: melting point value, item `CN(C)c1nc(Cc2ccc(NC(=O)c3ccc4ccccc4n3)cc2)nc(N2CCOCC2)c1CC(=O)O`
205 to 207 °C

Dear colleague, I am looking for the recorded melting point of the following compound: `CN(C)c1nc(Cc2cccc(NC(=O)c3ccc4ccccc4c3)c2)nc(Cl)c1CC(=O)O`
186 °C

Requested field: melting point. Item: `CN(C)c1nc(Cc2ccc(NC(=O)c3ccc(Cl)cc3)cc2)nc(N2CCOCC2)c1CC(=O)O`
216 to 218 °C (dec.)

Requested field: melting point. Item: CC(c1ccc(NC(=O)c2ccc3ccccc3n2)cc1)c1ncc(CC(=O)O)c(N(C)C)n1 (centres unmarked)
120 to 123 °C

====

IC50 values for the compounds below.
# system: human CRTH2 (Homo sapiens, UniProt Q9Y5Y4)
# Construct: expressed in transfected cells; host or cells: L1.2 cells, pEAK expression vector, puromycin-selected
# procedure-details: Measurement of Ca2+ mobilization in the human CRTH2-transfected L1.2 cell line (Assay 1)
# Type: cell-based
# protocol-conditions: PGD2-induced Ca2+ mobilization in CRTH2-transfected L1.2 cells; compounds as yielded by solid phase synthesis, purity about 40 to 90%; read-out: Activity class

Given the entry `CN(CC(=O)NC1CCCC1)c1nc(Cc2ccc(NC(=O)Nc3ccccc3)cc2)nc(Cl)c1CC(=O)O` , report its measured IC50.
10 to 100 nM

Item under review: `O=C(O)Cc1cnc(Cc2ccc(NC(=O)c3ccc(Cl)cc3)cc2)nc1N1CCCC1` . Reported IC50?
< 10 nM

Which measured IC50 value corresponds to `CN(C)c1nc(Cc2ccc(NC(=O)OCc3ccc([N+](=O)[O-])cc3)cc2)ncc1CC(=O)O` ?
10 to 100 nM
